target-entity: Integrin alpha-V/beta-5 (Homo sapiens, UniProt P06756+P18084)
Sequence (P06756 31-889 limits assumed): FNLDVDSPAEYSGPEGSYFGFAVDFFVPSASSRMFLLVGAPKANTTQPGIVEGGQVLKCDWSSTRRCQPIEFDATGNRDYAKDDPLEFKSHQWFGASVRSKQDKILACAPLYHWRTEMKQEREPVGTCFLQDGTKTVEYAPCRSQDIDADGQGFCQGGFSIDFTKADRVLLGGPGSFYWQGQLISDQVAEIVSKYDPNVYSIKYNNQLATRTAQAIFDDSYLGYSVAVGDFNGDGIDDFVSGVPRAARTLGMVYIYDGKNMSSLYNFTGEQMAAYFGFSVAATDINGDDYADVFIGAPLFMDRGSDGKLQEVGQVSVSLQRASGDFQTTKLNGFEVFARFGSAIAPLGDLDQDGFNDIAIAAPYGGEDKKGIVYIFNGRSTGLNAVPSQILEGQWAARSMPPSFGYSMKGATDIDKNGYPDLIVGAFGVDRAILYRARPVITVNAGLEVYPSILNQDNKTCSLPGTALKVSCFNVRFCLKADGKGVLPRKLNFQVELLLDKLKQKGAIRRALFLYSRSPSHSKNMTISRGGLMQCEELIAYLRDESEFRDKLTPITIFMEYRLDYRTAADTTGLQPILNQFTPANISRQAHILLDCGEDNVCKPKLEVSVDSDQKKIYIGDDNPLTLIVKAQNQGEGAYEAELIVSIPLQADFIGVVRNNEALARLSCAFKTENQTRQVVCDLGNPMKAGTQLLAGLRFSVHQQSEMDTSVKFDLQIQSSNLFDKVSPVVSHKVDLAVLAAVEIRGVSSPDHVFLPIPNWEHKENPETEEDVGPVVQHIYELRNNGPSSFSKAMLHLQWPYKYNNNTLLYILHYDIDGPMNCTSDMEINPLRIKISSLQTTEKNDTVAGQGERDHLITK
Sequence (P06756 891-1048 limits assumed): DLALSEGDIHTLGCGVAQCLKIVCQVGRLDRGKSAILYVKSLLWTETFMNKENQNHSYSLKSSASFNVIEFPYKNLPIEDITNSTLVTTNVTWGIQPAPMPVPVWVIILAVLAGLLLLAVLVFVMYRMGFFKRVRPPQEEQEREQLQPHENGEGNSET
Sequence (P18084 24-799 limits assumed): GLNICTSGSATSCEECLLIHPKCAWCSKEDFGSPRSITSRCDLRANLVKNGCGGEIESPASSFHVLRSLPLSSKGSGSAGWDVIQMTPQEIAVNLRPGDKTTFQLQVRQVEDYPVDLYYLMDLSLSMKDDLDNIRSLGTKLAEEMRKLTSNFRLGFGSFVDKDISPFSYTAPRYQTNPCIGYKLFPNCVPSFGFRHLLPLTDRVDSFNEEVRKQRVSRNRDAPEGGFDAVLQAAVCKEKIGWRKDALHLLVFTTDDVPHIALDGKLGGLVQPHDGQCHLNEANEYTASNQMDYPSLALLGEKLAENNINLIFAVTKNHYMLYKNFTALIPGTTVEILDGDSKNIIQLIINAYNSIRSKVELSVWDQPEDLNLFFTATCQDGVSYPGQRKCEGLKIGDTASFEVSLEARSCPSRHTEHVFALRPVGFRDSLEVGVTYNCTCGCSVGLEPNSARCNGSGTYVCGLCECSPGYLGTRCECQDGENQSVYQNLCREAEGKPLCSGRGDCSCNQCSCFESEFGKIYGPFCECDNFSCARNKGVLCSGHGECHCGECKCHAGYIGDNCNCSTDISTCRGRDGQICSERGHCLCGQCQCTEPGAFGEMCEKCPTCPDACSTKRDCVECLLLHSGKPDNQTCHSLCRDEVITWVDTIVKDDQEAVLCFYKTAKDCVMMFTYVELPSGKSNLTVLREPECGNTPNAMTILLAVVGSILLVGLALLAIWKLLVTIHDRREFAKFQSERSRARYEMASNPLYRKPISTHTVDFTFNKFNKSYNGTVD
assay-info: Binding affinity against integrin alpha V-beta5 in enzyme linked immunosorbent assay (ELISA)
parameter-measured: pIC50
API: returns pIC50 as number; meaning -log10 of concentration in mol/L.

Past entries and their recorded results:
INSERT INTO assay_data (compound, parameter_measured, experimental_result) VALUES
  ('CC(C)C[C@@H]1NC(=O)[C@H](CC(=O)O)NC(=O)CNC(=O)[C@H](CCCNC(=N)N)NC(=O)[C@H](Cc2c[nH]cn2)NC(=O)CNC(=O)[C@H](NC(=O)CN)C(C)(C)SSC[C@@H](C(=O)N[C@@H](C)C(=O)O)NC(=O)[C@H](CCCNC(=N)N)NC1=O (stereo in doubt; 1)', 'pIC50', 5.08),
  ('CC(C)C[C@@H]1NC(=O)[C@H](CC(=O)O)NC(=O)CNC(=O)[C@H](CCCNC(=N)N)NC(=O)[C@H](Cc2c[nH]cn2)NC(=O)CNC(=O)[C@@H](NC(=O)[C@@H](N)CCCNC(=N)N)C(C)(C)SSC[C@@H](C(=O)N[C@@H](CCCNC(=N)N)C(=O)O)NC(=O)[C@H](CCCNC(=N)N)NC1=O', 'pIC50', 5.31),
  ('COc1ccc(C[C@@H]2NC(=O)[C@H](CC(=O)O)NC(=O)CNC(=O)[C@H](CCCN=C(N)N)NC(=O)[C@@H]3CCCN3C(=O)[C@H](CC(N)=O)NC(=O)CCSSC[C@@H](C(N)=O)NC(=O)[C@H](CCCN=C(N)N)NC2=O)cc1', 'pIC50', 5.52),
  ('COc1ccc(C[C@@H]2NC(=O)[C@H](CC(=O)O)NC(=O)CNC(=O)[C@H](CCCNC(=N)N)NC(=O)[C@H](Cc3c[nH]cn3)NC(=O)CNC(=O)[C@@H](NC(=O)[C@@H](N)CCCNC(=N)N)C3(CCCCC3)SSC[C@@H](C(=O)N[C@@H](CCCNC(=N)N)C(=O)O)NC(=O)[C@H](CCCNC(=N)N)NC2=O)cc1', 'pIC50', 5.98),
  ('COc1ccc(C[C@@H]2NC(=O)[C@H](CC(=O)O)NC(=O)CNC(=O)[C@H](CCCNC(=N)N)NC(=O)[C@@H]3CCCN3C(=O)[C@H](CC(N)=O)NC(=O)[C@@H](NC(C)=O)CSSC[C@@H](C(N)=O)NC(=O)[C@H](CCCCN)NC2=O)cc1', 'pIC50', 5.24);

Query COc1ccc(C[C@@H]2NC(=O)[C@H](CC(=O)O)NC(=O)CNC(=O)[C@H](CCCNC(=N)N)NC(=O)[C@@H]3CCCN3C(=O)CNC(=O)[C@@H](NC(=O)[C@@H](N)CCCNC(=N)N)C3(CCCCC3)SSC[C@@H](C(=O)N[C@@H](CCCNC(=N)N)C(=O)O)NC(=O)[C@H](CCCNC(=N)N)NC2=O)cc1 yields pIC50 of 5.77

Query CC[C@H](C)[C@@H]1NC(=O)[C@@H](NC(C)=O)CSSC[C@@H](C(N)=O)NC(=O)[C@H](CCCN=C(N)N)NC(=O)[C@H](Cc2ccc([N+](=O)[O-])cc2)NC(=O)[C@H](CC(=O)O)NC(=O)CNC(=O)[C@H](CCCN=C(N)N)NC(=O)[C@@H]2CCCN2C1=O yields pIC50 of 5.37
